Where do these numbers come from? They come from patent US20190053492A1.

Assay: log P by HPLC on reversed-phase column (C 18), EEC Directive 79/831 Annex V.A8
Format: physicochemical
Details: log P, neutral range; HPLC on reversed-phase column (C 18), 55° C.
READOUT_TYPE: LOGP_NEUTRAL

[[record]]
smiles_record = "O=C(NCc1cc(F)c(Cl)cc1Cl)c1cc(-c2ccc(OC(F)(F)F)cc2)cc(NC(=O)C2CC2)n1"
reported_value = 5.07

[[record]]
smiles_record = "N#Cc1ccc(CNC(=O)c2cc(-c3ccc(SC4CC4)cc3)cc(NC(=O)C3CC3)n2)cc1"
reported_value = 3.86

[[record]]
smiles_record = "COc1ccc(CNC(=O)c2cc(-c3ccc(OC(F)(F)F)cc3)cc(NC(=O)C3CC3)n2)cc1"
reported_value = 4.05

[[record]]
smiles_record = "Cc1cc(OC(F)(F)F)ccc1-c1cc(NC(=O)C2CC2)nc(C(=O)NCc2ccc(C#N)cc2)c1"
reported_value = 3.95

[[record]]
smiles_record = "N#Cc1ccc(CNC(=O)c2cc(-c3ccc(I)cc3)cc(NC(=O)C3CC3)n2)cc1"
reported_value = 3.83

[[record]]
smiles_record = "N#Cc1ccc(CNC(=O)c2cc(-c3ccc(OC(F)(F)F)c(Cl)c3)cc(NC(=O)C3CC3)n2)cc1"
reported_value = 4.24

[[record]]
smiles_record = "O=C(NCc1ccc(Cl)cc1)c1cc(-c2ccc(C(F)(F)F)cc2)cc(NC(=O)C2CC2)n1"
reported_value = 4.34

[[record]]
smiles_record = "COCCNC(=O)c1cc(-c2ccc(OC(F)(F)F)cc2)cc(NC(=O)C2CC2)n1"
reported_value = 3.26

[[record]]
smiles_record = "N#Cc1ccc(CNC(=O)c2cc(-c3ccc(OC(F)(F)F)cc3)cc(NC(=O)C3(Cl)CC3)n2)cc1"
reported_value = 4.62

[[record]]
smiles_record = "O=C(NCc1ccc([N+](=O)[O-])cc1)c1cc(-c2ccc(C(F)(F)F)cc2)cc(NC(=O)C2CC2)n1"
reported_value = 3.85

[[record]]
smiles_record = "O=C(NCc1ccc(Cl)cc1Cl)c1cc(-c2ccc(C(F)(F)F)cc2)cc(NC(=O)C2CC2)n1"
reported_value = 4.89

[[record]]
smiles_record = "O=C(NCc1ccc(-c2ncon2)cc1)c1cc(-c2ccc(SC(F)(F)F)cc2)cc(NC(=O)C2CC2)n1"
reported_value = 4.15

[[record]]
smiles_record = "CN(Cc1ccc(C#N)cc1)C(=O)c1cc(-c2ccc(C(F)(F)F)cc2)cc(NC(=O)C2CC2)n1"
reported_value = 3.58

[[record]]
smiles_record = "O=C(NCc1ccc(Cl)cc1F)c1cc(-c2ccc(C(F)(F)F)cc2)cc(NC(=O)C2CC2)n1"
reported_value = 4.53

[[record]]
smiles_record = "NC(=S)C1(NC(=O)c2cc(-c3ccc(OC(F)(F)F)cc3)cc(NC(=O)C3CC3)n2)CC1"
reported_value = 3.14

